tested-target: Ribosomal protein S6 kinase alpha-6 (Homo sapiens)
condition-summary: at 10 µM
Entries are sorted into classes by residual activity as follows: low value: < 60%; medium value: ≥ 60% and < 90%; high value: ≥ 90%

Input: Textbook exercise: identify the category of the compound given here, `COc1ccc(COc2ccc(Cc3cnc(N)nc3N)cc2OC)cc1` , according to its measured value.
Output: high value

Input: Textbook exercise: identify the category of the compound given here, `N#C/C(=C1/Nc2ccccc2S1)c1ccnc(NCCc2cccnc2)n1` , according to its measured value.
Output: medium value

Input: Textbook exercise: identify the category of the compound given here, `O=C(CCCc1ccc(-c2ccccc2F)cc1)Nc1ccc(O)cc1` , according to its measured value.
Output: high value

Input: Textbook exercise: identify the category of the compound given here, `Nc1ncnc2[nH]nc(Nc3ccc(F)cc3)c12` , according to its measured value.
Output: low value

Input: Textbook exercise: identify the category of the compound given here, `Nc1nccc(-c2c(-c3ccc(F)cc3)ncn2C2CCNCC2)n1` , according to its measured value.
Output: medium value

Input: Textbook exercise: identify the category of the compound given here, `O=S(=O)(NCCNC/C=C/c1ccc(Br)cc1)c1cccc2cnccc12` , according to its measured value.
Output: low value

Input: Textbook exercise: identify the category of the compound given here, O=C(NC(NC(=S)Nc1ccc(F)c([N+](=O)[O-])c1)C(Cl)(Cl)Cl)C(c1ccccc1)c1ccccc1 (stereo not drawn) , according to its measured value.
Output: high value

Input: Textbook exercise: identify the category of the compound given here, `Nc1n[nH]c2nc3ccccc3nc12` , according to its measured value.
Output: medium value

Input: Textbook exercise: identify the category of the compound given here, `O=C1Nc2ccc(Cl)cc2/C1=C/c1cc(Cl)c(O)c(Cl)c1` , according to its measured value.
Output: low value

Input: Textbook exercise: identify the category of the compound given here, `O=C1NC(=O)C(c2c[nH]c3ccccc23)=C1c1c[nH]c2ccccc12` , according to its measured value.
Output: low value

Input: Textbook exercise: identify the category of the compound given here, `O=C1C(Cl)=C(N2C(=O)CCC2=O)C(=O)c2ccccc21` , according to its measured value.
Output: high value

Input: Textbook exercise: identify the category of the compound given here, `COc1cc2ncnc(Nc3cccc(Cl)c3)c2cc1OC` , according to its measured value.
Output: medium value

Input: Textbook exercise: identify the category of the compound given here, `O=C1NC(=O)C(c2cn(CCCO)c3ncccc23)=C1c1cnccn1` , according to its measured value.
Output: medium value

Input: Textbook exercise: identify the category of the compound given here, `COc1ccc(-c2cnc3c(-c4ccsc4)cnn3c2)cc1` , according to its measured value.
Output: high value

Input: Textbook exercise: identify the category of the compound given here, `Nc1ncnc2c1c(-c1ccc(Oc3ccccc3)cc1)cn2C1CCCC1` , according to its measured value.
Output: medium value

Input: Textbook exercise: identify the category of the compound given here, `CCCCc1c(-c2ccc(OC)cc2)[nH]c2nccnc12` , according to its measured value.
Output: high value

Input: Textbook exercise: identify the category of the compound given here, `O=C(c1cc2cc(O)ccc2[nH]1)c1cc2cc(O)ccc2[nH]1` , according to its measured value.
Output: low value

Input: Textbook exercise: identify the category of the compound given here, `O=C1NC(=O)C(c2cn(CCCn3ccnc3)c3ccccc23)=C1Nc1ccccc1` , according to its measured value.
Output: low value

Input: Textbook exercise: identify the category of the compound given here, `COc1cc2nccc(Oc3ccc(NC(=S)NC(=O)c4ccccc4C)cc3)c2cc1OC` , according to its measured value.
Output: high value

Input: Textbook exercise: identify the category of the compound given here, `c1ccc(-c2cnc(Nc3ccc(OCCN4CCCC4)cc3)s2)cc1` , according to its measured value.
Output: low value

====

tested-target: Homeodomain-interacting protein kinase 2 (Homo sapiens)
condition-summary: at 1 µM
Answer each item with its documented residual activity.

Input: Give the reported residual activity for this compound. `O=c1cc(N2CCNCC2)oc2c(-c3ccccc3)cccc12`
Output: 97%

Input: Give the reported residual activity for this compound. `COc1ccc2c(c1)c(C1=C(c3c[nH]c4ccccc34)C(=O)NC1=O)cn2CCCN(C)C`
Output: 57%

Input: Give the reported residual activity for this compound. `NC(=O)Nc1sc(-c2ccc(F)cc2)cc1C(N)=O`
Output: 94%

Input: Give the reported residual activity for this compound. `O=C1Nc2ccc(Cl)cc2/C1=C/c1cc(Cl)c(O)c(Cl)c1`
Output: 76%

Input: Give the reported residual activity for this compound. `COc1ccc(-c2cnc3c(-c4ccsc4)cnn3c2)cc1`
Output: 93%

Input: Give the reported residual activity for this compound. `O=C1NC(=O)C(c2cn(CCCO)c3ncccc23)=C1c1cnccn1`
Output: 56%

====

tested-target: Tyrosine-protein kinase receptor TYRO3 (Homo sapiens) (UniProt Q06418)
Sequence (whole entry): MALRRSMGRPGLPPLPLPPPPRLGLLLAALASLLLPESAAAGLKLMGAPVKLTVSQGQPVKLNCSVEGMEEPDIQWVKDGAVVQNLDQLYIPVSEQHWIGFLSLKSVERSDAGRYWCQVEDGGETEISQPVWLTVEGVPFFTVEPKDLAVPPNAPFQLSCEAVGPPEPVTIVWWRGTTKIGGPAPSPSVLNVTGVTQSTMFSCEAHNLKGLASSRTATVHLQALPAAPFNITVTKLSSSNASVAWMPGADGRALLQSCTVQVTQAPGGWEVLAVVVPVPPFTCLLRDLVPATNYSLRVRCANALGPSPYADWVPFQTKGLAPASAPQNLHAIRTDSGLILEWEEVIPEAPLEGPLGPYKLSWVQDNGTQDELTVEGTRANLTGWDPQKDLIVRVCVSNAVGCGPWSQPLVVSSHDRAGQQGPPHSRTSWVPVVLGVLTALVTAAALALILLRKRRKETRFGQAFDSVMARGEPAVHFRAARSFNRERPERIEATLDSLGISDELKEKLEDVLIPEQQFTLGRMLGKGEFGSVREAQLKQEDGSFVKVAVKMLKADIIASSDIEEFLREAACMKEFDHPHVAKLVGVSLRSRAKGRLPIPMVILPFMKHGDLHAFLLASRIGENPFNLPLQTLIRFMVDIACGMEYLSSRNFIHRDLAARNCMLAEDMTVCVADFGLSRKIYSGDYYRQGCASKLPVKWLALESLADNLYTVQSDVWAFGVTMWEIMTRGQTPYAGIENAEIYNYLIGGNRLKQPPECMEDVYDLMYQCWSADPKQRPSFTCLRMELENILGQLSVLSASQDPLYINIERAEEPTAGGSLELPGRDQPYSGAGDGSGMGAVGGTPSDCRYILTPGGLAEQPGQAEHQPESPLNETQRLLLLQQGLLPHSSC
condition-summary: at 10 µM
Given measured residual activity, output label 1 if it is greater than or equal to 70% and label 0 if not.

Input: Decide: residual activity of `COc1cc2nccc(Oc3ccc(NC(=O)Nc4cc(C)on4)c(Cl)c3)c2cc1OC` >= 70%?
Output: label 0

Input: Decide: residual activity of `CCCC(=O)Oc1ccc2[nH]c(C(=O)c3cc4ccccc4[nH]3)cc2c1` >= 70%?
Output: label 1

Input: Decide: residual activity of `O=c1cc(N2CCNCC2)oc2c(-c3ccccc3)cccc12` >= 70%?
Output: label 1

Input: Decide: residual activity of `N#C/C(=C1/Nc2ccccc2S1)c1ccnc(NCCc2cccnc2)n1` >= 70%?
Output: label 1

Input: Decide: residual activity of `CCN(CC)CCNC(=O)c1c(C)[nH]c(/C=C2\C(=O)Nc3ccc(Cl)cc32)c1C` >= 70%?
Output: label 0

Input: Decide: residual activity of `Oc1cccc(-c2nc(N3CCOCC3)c3oc4ncccc4c3n2)c1` >= 70%?
Output: label 1

====

tested-target: Proto-oncogene tyrosine-protein kinase receptor Ret (Homo sapiens)
condition-summary: at 10 µM
Answer each item with its documented residual activity.
Your answer should be a plain number; it is taken to be in %.

Input: Give the reported residual activity for this molecule. `O=C1Nc2ccc(Cl)cc2/C1=C/c1cc(Cl)c(O)c(Cl)c1`
Output: 77

Input: Give the reported residual activity for this molecule. `CCCCc1c(-c2ccc(OC)cc2)[nH]c2nccnc12`
Output: 63

Input: Give the reported residual activity for this molecule. `O=C1C(Cl)=C(N2C(=O)CCC2=O)C(=O)c2ccccc21`
Output: 86

Input: Give the reported residual activity for this molecule. `COc1cc2nccc(Oc3ccc(NC(=O)Nc4cc(C)on4)c(Cl)c3)c2cc1OC`
Output: -1

Input: Give the reported residual activity for this molecule. `CC(C)[C@H](CO)Nc1nc(Nc2cc(N)cc(Cl)c2)c2ncn(C(C)C)c2n1`
Output: 21

Input: Give the reported residual activity for this molecule. `CC(C)(C)c1nc2c3ccc(F)cc3c3c(=O)[nH]ccc3c2[nH]1`
Output: 36

Input: Give the reported residual activity for this molecule. `Nc1ncnc2c1c(-c1ccc(Oc3ccccc3)cc1)cn2C1CCCC1`
Output: -1

Input: Give the reported residual activity for this molecule. `O=C1Cc2c([nH]c3ccc([N+](=O)[O-])cc23)-c2ccccc2N1`
Output: 79

Input: Give the reported residual activity for this molecule. `O=c1c(-c2ccc(F)cc2)c(-c2ccncc2)[nH]n1-c1ccc(Cl)cc1`
Output: 55

Input: Give the reported residual activity for this molecule. `O=S(=O)(NCCNC/C=C/c1ccc(Br)cc1)c1cccc2cnccc12`
Output: 82

Input: Give the reported residual activity for this molecule. `CCOC(=O)c1c(C)[nH]c(/C=C2\C(=O)Nc3ccccc32)c1C`
Output: 14

Input: Give the reported residual activity for this molecule. `COc1ccc(Cl)cc1NC(=O)Nc1cc(C)nc2ccccc12`
Output: 87

Input: Give the reported residual activity for this molecule. `Nc1n[nH]c2nc3ccccc3nc12`
Output: 82
